B1: WEE1 (parent)
chain: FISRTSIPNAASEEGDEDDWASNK

# Variants of: B1
# measurement-description: protein stability index of a GFP-peptide fusion (GPS, HEK-293T) (PSI 1-6); higher = more stable;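 further: lentivirally expressed fusions sorted by FACS into six bins by GFP to DsRed ratio, PSI derived from sequencing read proportions per bin multiplied by bin number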
# conditions-used: c terminus: a fixed tail appended
property-label: protein stability index
Just the number, please, no unit after it.

>  <mutant-designation>
N23M

>  <protein stability index>
3.57

$$$$
>  <mutant-designation>
E13T

>  <protein stability index>
3.55

$$$$
>  <mutant-designation>
R4P

>  <protein stability index>
3.68

$$$$
>  <mutant-designation>
N23Q

>  <protein stability index>
3.82

$$$$
>  <mutant-designation>
S3F

>  <protein stability index>
3.57

$$$$
>  <mutant-designation>
R4Y

>  <protein stability index>
4.1

$$$$

Input line: Give the measured protein stability index for N23G
Output line: 4.33
